FYI, the data here is from ChEMBL document CHEMBL4152230.

assay: Half life in human plasma by HPLC analysis; assay type: ADME, cell-free
recorded metric: half-life (h)

In [3]: df
Out[3]:
                              smiles_record  display_unit  result
0  CC(=N)NCc1cccc(CNC(=O)[C@@H]2CCCN2)c1.Cl.Cl             h      11

###

test: Selectivity index, ratio of IC50 for recombinant bovine eNOS to IC50 for recombinant mouse iNOS
Catalogue of Ratio IC50 readings, one per entry.
recorded metric: Ratio IC50

>>> df
                              smiles_record  recorded_metric  sign_qualifier  result
0  CC(=N)NCc1cccc(CNC(=O)[C@@H](N)CC(=O)O)c1       Ratio IC50               =     323
1   CC(=N)NCc1cccc(CNC(=O)[C@@H](N)CCCCN)c1       Ratio IC50               =     473
2  CC[C@H](C)[C@H](N)C(=O)NCc1cccc(CNC(C)=N)c1       Ratio IC50               >    5850
3  CC(=N)NCc1cccc(CNC(=O)[C@@H](N)CCC(=O)O)c1       Ratio IC50               =       8
4  CC(=N)NCc1cccc(CNC(=O)[C@@H](N)Cc2cnc[nH]2)c1       Ratio IC50               >    1870
5        CC(=N)NCc1cccc(CNC(=O)[C@H](C)N)c1       Ratio IC50               >    3600
